FYI, the data here is from the RNAGym collection of RNA variant scans (doi:10.1002/anie.201605470).

B1: Osa-1-4 twister ribozyme (parent)
chain: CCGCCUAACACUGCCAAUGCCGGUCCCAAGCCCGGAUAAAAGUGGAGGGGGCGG

# Variants of: B1
# method.summary: self-cleavage, relative activity (ratio to wild type); higher = more cleavage; co-transcriptional
result.type: self-cleavage
Field format: numeric only.

1. G19C G47C: 0.02
2. C27G G13U: 0.01

INPUT: Using the record for G53C U18C , state its measured self-cleavage.
OUTPUT: 0.1

INPUT: Using the record for C25U U12A , state its measured self-cleavage.
OUTPUT: 0.18

INPUT: Using the record for C14A G50C , state its measured self-cleavage.
OUTPUT: 0.08
